Biological target: Human immunodeficiency virus type 1 protease (Human immunodeficiency virus 1, UniProt Q72874)
measure.name: Ki (nM)
The answer is to be given in nM; state only the numeric part.

CC(C)[C@H](NC(=O)[C@H](NCc1ccccc1)[C@H](O)[C@H](Cc1ccccc1)NC(=O)[C@H](CC(N)=O)NC(=O)OCc1ccccc1)C(=O)NCc1ccccc1 10.4
CC(C)[C@H](NC(=O)[C@H](NCc1ccccc1)[C@H](O)[C@H](Cc1ccccc1)NC(=O)[C@H](Cc1c[nH]c2ccccc12)NC(=O)OCc1ccccc1)C(=O)NCc1ccccc1 200

Sample "CC(C)[C@H](NC(=O)OCc1ccccc1)C(=O)N[C@@H](Cc1ccccc1)[C@@H](O)[C@@H](NCc1ccc(Cl)cc1)C(=O)N[C@H](C(=O)NCc1nc2ccccc2[nH]1)C(C)C" ; Ki observed: 6.1
